Test details: GSK_TCMDC: Inhibition Frequency Index (IFI). The number of non-kinase HTS assays where a compound showed > 50 % inhibition, expressed as a percentage of the number of such assays in which the compound was tested
Type: functional
In all, about 13,000 compounds were measured (“IFI”: median about 4, highest 2% from about 17 on). The list comes from a sample in which the highest values are over-represented; it also holds close analogues and randomly drawn compounds.
Just so you know, the groups by IFI go like this: bin 1 (below 2%), bin 2 (2% to below 20%), bin 3 (20% or more)

[ask] Could you tell me which band CCCCC(CC)CN1C(=O)C(c2ccccc2)(c2ccccc2)N=C1N (stereo unspecified) belongs to?
[reply] bin 2

[ask] # bin label for "Cc1cccc(Nc2nccc(Nc3cccc(C(=O)NCCN4CCOCC4)c3)n2)c1"
[reply] bin 1

[ask] // return the class label for C=CCC1OC(=O)c2cc(OC)cc(OC)c21 (stereo unspecified)
[reply] bin 3

[ask] Class for OC(CNc1ccnc(Nc2cccc(CCN3CCOCC3)c2)n1)c1ccccc1 (stereo unspecified) ?
[reply] bin 2

[ask] Class? Entry: "CC(=O)c1ccc(NC(=O)Nc2ccc3nccc(N4CCN(C)CC4)c3c2)cc1"
[reply] bin 1

[ask] Which class is correct for the following molecule? "Cc1cc(Nc2ccncc2)n2nc(C)c(-c3ccc(Cl)cc3)c2n1"
[reply] bin 1

[ask] Kindly state the category for this molecule: "Cc1cccc2nc(-c3cccc(-c4cccc(NC(=O)COc5ccccc5C(N)=O)c4)c3)[nH]c12"
[reply] bin 2

[ask] Bin? "CC(=O)c1ccc2nc[nH]c(=O)c2c1"
[reply] bin 3

[ask] Assign a category based on measured IFI for "CN(C)c1ccc(NC2=NC(N)=NC(C)(C)N2)cc1" and give only the class name.
[reply] bin 1

[ask] Hello team, could you let me know which band the following molecule falls into: COc1ccc2ncc(F)c(CCN3CC(O)C(CNCc4ccccc4)C3)c2n1 (stereo unspecified)
[reply] bin 2

[ask] State the band of "Cc1cnc(Nc2cccc(CCN3CCOCC3)c2)nc1NC(C)C"
[reply] bin 2

---

Test details: GSK_TCMDC: Inhibition Frequency Index (IFI). The number of non-kinase HTS assays where a compound showed > 50 % inhibition, expressed as a percentage of the number of such assays in which the compound was tested
Type: functional
Whole data set: some 13,000 compounds, median “IFI” near 4, cut for the highest 2% near 17. The list comes from a sample in which the highest values are over-represented; it also holds close analogues and randomly drawn compounds.
Please respond with reported IFI for every item in the list.
Record the value in %, omitting the unit from your answer.

[ask] Find the measured IFI of CC(CCCCC(=O)Nc1ccc(CC(C)NCCc2cccc(Cl)c2)cc1)NCCc1cccc(Cl)c1 (centres undefined) and report it.
[reply] 4.29

[ask] Supply reported IFI belonging to this compound: "C[C@H](Cc1ccc(OCCCCCCOc2ccc(C[C@@H](C)N[C@H](C)c3ccccc3)cc2)cc1)NC[C@H](O)c1cccc(Cl)c1"
[reply] 19.6

[ask] # return recorded IFI for input CC(CCCC(=O)Nc1ccc(CC(C)NCCc2cccc(Cl)c2)cc1)NCCc1cccc(Cl)c1 (centres undefined)
[reply] 11.9

[ask] Fill in reported IFI for this entry: "C[C@H](Cc1ccc(OCCCCCOc2ccc(C[C@@H](C)NC[C@H](O)c3cccc(Cl)c3)cc2)cc1)NC[C@H](O)c1cccc(Cl)c1"
[reply] 20.9

---

Test details: GSK_TCMDC: Inhibition Frequency Index (IFI). The number of non-kinase HTS assays where a compound showed > 50 % inhibition, expressed as a percentage of the number of such assays in which the compound was tested
Assay type: functional
Whole data set: some 13,000 compounds, median “IFI” near 4, cut for the highest 2% near 17. The entries come from a sample that favours the highest values as a whole.
I would appreciate it if you labelled entries 1 (yes) when IFI is 20% or higher, otherwise 0 (no).

[ask] Decide: IFI of "Cc1ccc(NC(=O)Nc2ccc(Cl)cc2)cc1-c1ccc(C(=O)Nc2ccncc2)cc1" >= 20%?
[reply] 1 (yes)

[ask] Entry "COc1cccc(NC(=O)Nc2ccc(C)c(-c3ccc(C(=O)Nc4ccncc4)cc3)c2)c1" : is its IFI no less than 20%?
[reply] 1 (yes)

[ask] For this compound, is measured IFI 20% or higher? "Cc1ccc(NC(=O)Nc2ccc(Cl)cc2)cc1-c1cccc(C(=O)Nc2ccc(F)cc2)c1"
[reply] 0 (no)

[ask] Please check the record "COc1ccc(NC(=O)Nc2ccc(C)c(-c3ccc(C(=O)NCCN4CCCC4)cc3)c2)cc1" and state if its IFI is at or above 20%.
[reply] 0 (no)

[ask] Has "Cc1ccc(NC(=O)c2cccc(C#N)c2)cc1-c1ccc(C(=O)Nc2ccncc2)cc1" a recorded IFI greater than or equal to 20%?
[reply] 1 (yes)

---

Test details: GSK_TCMDC: Inhibition Frequency Index (IFI). The number of non-kinase HTS assays where a compound showed > 50 % inhibition, expressed as a percentage of the number of such assays in which the compound was tested
Type: functional
Over roughly 13,000 compounds, “IFI” has its median near 4; the highest 2% begin near 17. The sample as a whole holds a higher share of the highest values than the screen did.
Parameter measured: IFI (%)
# unit: % | format: bare number

[ask] Retrieve IFI measured for "CC(=NNC(=N)N)c1ccc2c(c1)Cc1ccccc1-2" and print it.
[reply] 7.19

[ask] # return recorded IFI for entry COc1cccc(-c2csc(C(=O)NCC3CCN(Cc4ccc(C(C)C)cc4)C3)c2)c1 (centres undefined)
[reply] 8

[ask] For "O=C(NCCc1ccccc1)N(Cc1ccccc1-c1ccc(CNCCc2ccccc2)cc1)C1CCN(Cc2ccccc2)CC1" , write its IFI.
[reply] 7.86

[ask] Give me measured IFI, please, for this compound: "CCCCCNC(=N)c1ccc(OCCCCCOc2ccc(C(=N)NCCCCC)cc2)cc1"
[reply] 5

[ask] Return reported IFI. Input compound: "N=C(N)Nc1ccc(OCCCCCOc2ccc(NC(=N)N)cc2)cc1"
[reply] 3.13

[ask] State its IFI: "Cc1cc(N)c2cc(NC(=O)c3cc4ccccc4s3)ccc2n1"
[reply] 6.12

[ask] Let me know recorded IFI for CCCCOc1ccc(C(=O)C(CCC(CNC(C)(C)C)C(=O)c2ccc(OCCCC)cc2)CNC(C)(C)C)cc1 (centres undefined) , thanks.
[reply] 25.4

[ask] Please report the measured IFI for CC(C)(C)c1ccc(C(=O)NC2CCC(CCN3CCc4ccc(S(C)(=O)=O)cc4CC3)CC2)cc1C(F)(F)F (centres undefined)
[reply] 21.6

[ask] State, in one line, measured IFI of "Cc1noc(C)c1-c1cccc(CNCc2ccc(-c3ccc(-c4nc5cc(F)ccc5[nH]4)cc3)cc2)c1"
[reply] 8.91

---

Test details: GSK_TCMDC: Inhibition Frequency Index (IFI). The number of non-kinase HTS assays where a compound showed > 50 % inhibition, expressed as a percentage of the number of such assays in which the compound was tested
Type: functional
Over roughly 13,000 compounds, “IFI” has its median near 4; the highest 2% begin near 17. What follows is part of a selection rich in the highest values, with near analogues and random picks from the rest.
Give measured IFI for each item. Keep answers brief.
Give a bare numeral; the unit % is implied.

[ask] # return recorded IFI for input "O=C(NC1CCN(CCCc2ccccc2)CC1)c1ccc(-c2cccc(C(F)(F)F)c2)s1"
[reply] 17.2

[ask] Retrieve IFI measured for "COc1cccc(CCNc2nc(NCc3ccccc3)c3cc(OC)c(OC)cc3n2)c1" and print it.
[reply] 5.93

[ask] Return IFI for the following compound: "CCNc1cc(C)nc(Nc2ccc(NC(=O)c3ccccc3Cl)cc2)n1"
[reply] 11.3

[ask] For the compound CCN(CC)CCOc1ccc(C(O)(C#CC(O)(c2ccccc2)c2ccc(OCCN(CC)CC)cc2)c2ccccc2)cc1 (stereo not drawn) , report IFI.
[reply] 6.52

[ask] Fill in reported IFI for this entry: "Cc1cc(N(C)C)nc(Nc2ccc(NS(=O)(=O)c3ccccc3)cc2)n1"
[reply] 9.62

[ask] Give a short answer stating reported IFI for "CCN(CC)CCNC(=O)c1ccc(NC(=O)c2oc3c(Cl)cccc3c2C)cc1" .
[reply] 4.76

[ask] Check the records and state IFI for "CC(C)Oc1cc(-c2ccc(S(C)(=O)=O)cc2)nc(N(Cc2cccc(F)c2F)Cc2cccc(F)c2F)n1"
[reply] 0

[ask] Indicate its recorded IFI; the compound in question is "Cc1cc(N(C)C)nc(Nc2ccc(NC(=O)c3c(F)cccc3Cl)cc2)n1"
[reply] 1.89

[ask] Return the recorded IFI value; entry: O=C1Nc2cccc3c2C1(CCCCN1CCC(c2c(-c4ccc(F)cc4)[nH]c4ccccc24)CC1)CCC3 (stereo not drawn)
[reply] 7.91

[ask] Report IFI, nothing else, for this compound: "CC(C)(C)c1ccc(CN2CCC(NC(=O)c3ccc(-c4cccc(C(F)(F)F)c4)s3)CC2)cc1"
[reply] 13

[ask] # return recorded IFI for input "CC(C)COc1ccc(Cl)cc1Cc1ccc(-c2nc3ccc(Cl)cc3[nH]2)o1"
[reply] 19.1

[ask] Hello, please tell me recorded IFI for this one: "CC(C)COc1ccc(Cl)cc1Cc1ccc(-c2nc3ccc(F)cc3[nH]2)o1"
[reply] 15.5

[ask] Output IFI of "Nc1nc(N)c2c3c(ccc2n1)NCCC3"
[reply] 2.48

[ask] Give me measured IFI, please, for this compound: "COc1c(C2CCN(CCCCNC(=O)c3ccc(-c4ccc(Cl)cc4)c(O)c3)CC2)ccc2c1CCCC2"
[reply] 9.09

[ask] Note down IFI recorded for COc1ccccc1C1CCN(C2CCC(NC(=O)/C=C/c3ccc(OC(F)(F)F)cc3)CC2)CC1 (stereo not drawn)
[reply] 11.7

[ask] Please give the documented IFI of "COc1ccc2ccccc2c1C=NN=c1cc(C)[nH]c2c(C)cccc12"
[reply] 1.48

[ask] Give the value of IFI reported for the following: "O=C(NC1CCN(Cc2ccc(F)cc2)CC1)c1ccc(-c2cccc(C(F)(F)F)c2)s1"
[reply] 24.6

[ask] Please look at this compound and report its IFI: "O=c1[nH]ccc2nc(N[C@@H]3CCNC3)nc(Nc3cccc(S(=O)(=O)N4CCOCC4)c3)c12"
[reply] 18.2

[ask] Answer with the recorded IFI of "CC(=O)Nc1ccc(CN2CCC(NC(=O)c3ccc(-c4cccc(C(F)(F)F)c4)s3)CC2)cc1" only.
[reply] 10.3

[ask] Return IFI (reported value) for this compound: "CCn1c(-c2nonc2N)nc2c(-c3cccc(Cl)c3)ncc(OCCCNCc3cnc(C)nc3N)c21"
[reply] 7.62

[ask] Supply reported IFI belonging to this compound: "C=C(C)CSc1nc2c(c(=O)n1CCc1ccccc1)C1(CCCC1)Cc1ccccc1-2"
[reply] 0

[ask] Determine its reported IFI: "CN(C)c1ccc(-c2ccc(C(=O)NC3CCN(Cc4cccc(C(F)(F)F)c4)CC3)s2)cc1"
[reply] 11.1

[ask] Tell us which IFI value is on record for "N=C(NCCCCCCCCNC(=N)Nc1ccc(Cl)cc1)Nc1ccc(Cl)cc1"
[reply] 3.65

[ask] Identify the reported IFI for the following entry. "CN(C)c1ccc(CN2CCC(NC(=O)c3ccc(-c4cccc(C(F)(F)F)c4)s3)CC2)cc1"
[reply] 17.2

[ask] Could you please provide reported IFI for "O=c1[nH]ccc2nc(N[C@@H]3CCNC3)nc(Nc3cc(Cl)cc(Cl)c3)c12" ? Thanks!
[reply] 16.7

[ask] Quick one: give measured IFI for "Cc1cccc(Nc2nc(N[C@@H]3CCCNC3)nc3cc[nH]c(=O)c23)c1"
[reply] 16.7

[ask] Quote IFI reported for "O=C(NC1CCN(Cc2cccc(C(F)(F)F)c2)CC1)c1ccc(-c2cccc(C(F)(F)F)c2)s1" please.
[reply] 12.7

[ask] Provide only the value of recorded IFI for "O=C(Nc1ccc(CN2CCOCC2)cc1)c1ccc(-c2ccc(Cl)cc2)o1"
[reply] 2.78

[ask] Specify measured IFI for "CCn1c(-c2nonc2N)nc2c(Cl)ncc(O[C@H](CCN)c3ccccc3F)c21" .
[reply] 23.1

[ask] For the compound "Clc1ccc(/N=C(/NCCCCCCCN/C(=N\c2ccc(Cl)cc2)Nc2ccc(Cl)cc2)Nc2ccc(Cl)cc2)cc1" , give its reported IFI.
[reply] 17.1

[ask] Supply recorded IFI for "CC(C)COc1ccc(Cl)cc1Cc1ccc(-c2nc3c(F)cccc3[nH]2)o1" here.
[reply] 15.5

[ask] Tell me IFI reported for "CC(C)COc1ccc(Cl)cc1Cc1ccc(-c2nc3ccc(C(F)(F)F)cc3[nH]2)o1"
[reply] 11.3

[ask] Please look at this compound and report its IFI: "O=C(NC1CCN(Cc2ccc3c(c2)OCCO3)CC1)c1ccc(-c2cccc(Cl)c2)s1"
[reply] 15.2

[ask] Write down IFI measured for item "Cc1nc2ccc(-c3ccc(OC(F)(F)F)cc3)cc2c(O)c1C#N"
[reply] 1.82

[ask] Specify reported IFI for the compound shown: "CC(C)COc1ccc(Cl)cc1Cc1ccc(-c2nc3ccc(Br)cc3[nH]2)o1"
[reply] 19.8

[ask] Recall and state the measured IFI for "NS(=O)(=O)c1cccc(Nc2nc(N[C@@H]3CCNC3)nc3cc[nH]c(=O)c23)c1" .
[reply] 18.2

[ask] Please give measured IFI of the following entry: "CC(C)(C)CCN1CCC(NC(=O)c2ccc(-c3cccc(C(F)(F)F)c3)s2)CC1"
[reply] 15.8

[ask] Read the entry "O=c1[nH]ccc2nc(N[C@@H]3CCCNC3)nc(Nc3ccc(S(=O)(=O)N4CCOCC4)cc3)c12" and write its reported IFI.
[reply] 0
